Origin of measurements: PubChem BioAssay (NCI)

So I've got a bunch of compounds here, and I need their TGI values.
Test system: MALME-3M melanoma
Assay: NCI tumour cell line growth inhibition, 48 h
One number for each entry, in µM.

INSERT INTO assay_data (compound, measured_number) VALUES
  ('N#Cc1sc2c(c1OC(=O)c1ccco1)c(=O)n(-c1ccccc1)c(=S)n2-c1ccccc1', 58.2);

Would you mind listing TGI for each of the following compounds?
1. COc1cc2c(cc1OC)C(Cl)C(c1ccc(Br)cc1)=C2Cl (stereo not given)
2. O=C(CSc1nc2ccc(I)cc2c(=O)n1Cc1ccccc1)Nc1ccccc1
3. CC(NNC(=S)N1CCN(c2ccccn2)CC1)c1nccc2ccccc12 (stereo not given)

Response line:
28
43.8
15.5

====

So I've got a bunch of compounds here, and I need their GI50 values.
Tested on: SK-MEL-5 melanoma
Test: NCI tumour cell line growth inhibition, 48 h

Record excerpt, results attached:
INSERT INTO assay_data (compound, result) VALUES
  ('CC1=CC2(C)/C=C(C)/C=C\CC(O)/C=C3/C=CC(=C4C(=O)OC2(CC1C)C4=O)OC3 (stereo not given)', '3070 nM'),
  ('Cc1ccc2sc3c(NCCCN)nc4ccccc4c3c(=O)c2c1', '1790 nM'),
  ('COc1c(C(N)=O)cc(-c2ccc(Cl)cc2)cc1-c1ccc(S(N)(=O)=O)cc1', '7400 nM'),
  ('O=C(Nc1nc2c(C(F)(F)F)cccc2s1)c1cc(Cl)ccc1O', '193 nM');

Prompt line: Short answer please: GI50, SK-MEL-5 melanoma, entry `COc1cc(OC)c(/C=C/C(=O)c2c(OC)cc(OC)cc2OC)c(OC)c1`
Response line: 818 nM

====

Tested on: EKVX NSCLC
Assay: NCI tumour cell line growth inhibition, 48 h
test.readout: TGI

Record excerpt, results attached:
INSERT INTO measurements (molecule, target_system, test_readout, result) VALUES
  ('CC1(C)CCCCCC(O)C(O)CCC(C)(C)C1=O (stereo not given)', 'EKVX NSCLC', 'TGI', '> 100 µM'),
  ('COc1ccc(C2N(c3ccc(C)c(N=C=O)c3)C(=O)N3C(c4ccc(OC)cc4)N(c4ccc(C)c(N=C=O)c4)C(=O)N23)cc1 (stereo not given)', 'EKVX NSCLC', 'TGI', '> 100 µM'),
  ('COc1cc2c(cc1OC)C(Cl)C(c1ccc(Br)cc1)=C2Cl (stereo not given)', 'EKVX NSCLC', 'TGI', '17.2 µM');

Would you mind listing TGI for each of the following molecules?
1. O=C(Nc1nc2c(C(F)(F)F)cccc2s1)c1cc(Cl)ccc1O
2. OC1OCC(COc2cc(Cl)c(Cl)cc2Cl)OC1O (stereo not given)
3. N#CCCN(CCCCN(CCC#N)C(=O)Nc1ccccc1)C(=O)Nc1ccccc1
4. O=C(Nc1ccc(Br)cc1)C(=O)C(C(=O)c1ccc(Cl)c(Cl)c1)C1OC(=O)c2ccccc21 (stereo not given)

Response line:
1: 5.75 µM; 2: 81.9 µM; 3: > 100 µM; 4: > 100 µM

Would you mind listing TGI for each of the following molecules?
1. Cc1ccc(/C=C2\CCCCC2=O)cc1
2. CCCCCCCCN(CCCCCCCC)CC(O)c1cc(-c2ccccc2)nc2ccc(OC)cc12 (stereo not given)
3. O=C(Nc1ccc(Cl)c(Cl)c1)c1ccc(NC2=C(Cl)C(=O)N(Cc3ccccc3)C2=O)cc1
4. Cc1ccsc1C(NC(=O)c1ccccc1)c1cc(Cl)c2cccnc2c1O (stereo not given)

Response line:
1. > 100 µM
2. > 100 µM
3. 48.6 µM
4. 10.9 µM

Would you mind listing TGI for each of the following molecules?
1. COC(=O)NC(Cc1ccccc1)NC(=O)OC(C)(C)C (stereo not given)
2. CCOC(=O)c1ccc2nc3n(c2c1)C(c1c(F)cccc1F)SC3 (stereo not given)
3. COc1ccc2c3ccnc(C(F)(F)F)c3n(CCCCN)c2c1
4. COC(=O)C1=C(C)NC(C)=C(C(=O)OC)C1c1cccc(/[N+]([O-])=C/c2ccccc2)c1
5. CN1C(=O)N(C)C2C1NC(=S)N2/N=C/C=C/c1ccccc1[N+](=O)[O-] (stereo not given)
6. CC1(C)OCC2OC(n3cnc4c(N)nc(Cl)nc43)C(OS(C)(=O)=O)C2O1 (stereo not given)
7. CC1=CC(C)=N/C(=N/S(=O)(=O)c2cc(C)c(Cl)cc2SCc2ccccc2)NN1

Response line:
1: > 100 µM; 2: > 100 µM; 3: 23.6 µM; 4: > 100 µM; 5: > 100 µM; 6: > 100 µM; 7: > 100 µM

Would you mind listing TGI for each of the following molecules?
1. Cc1cc2nc3c(C#N)c(C)c(CCCl)c(Cl)n3c2cc1C
2. O=C1C=CC2C3C(=O)N(c4ccccc4)C(=O)C3C1N2Cc1ccccc1 (stereo not given)

Response line:
1: 35.6 µM; 2: 23.6 µM

====

So I've got a bunch of molecules here, and I need their TGI values.
Tested on: NCI/ADR-RES ovarian
Experiment: NCI tumour cell line growth inhibition, 48 h
Numbers only, in µM.

Record excerpt, results attached:
INSERT INTO measurements (molecule, test_readout, measured_number) VALUES
  ('COC(=O)N[C@@H]1C[C@H]2CC[C@]1(O[Si](C(C)C)(C(C)C)C(C)C)C(=O)C2', 'TGI', 35.4),
  ('CCN1CCN(c2ccc(NC(=O)Nc3nc4ccc(-c5ccccc5OC)cc4s3)cc2)CC1', 'TGI', 3.35),
  ('CC1=CC2(C)/C=C(C)/C=C\CC(O)/C=C3/C=CC(=C4C(=O)OC2(CC1C)C4=O)OC3 (stereo not given)', 'TGI', 12.2);

Prompt line: Which TGI reading was recorded for the molecule O=C1OC(OC/C(Br)=C(\Br)COC2OC(=O)C(Cl)=C2Cl)C(Cl)=C1Cl (stereo not given) ?
Response line: 25.2

====

Test system: MDA-N
Assay: NCI tumour cell line growth inhibition, 48 h
So I've got a bunch of compounds here, and I need their TGI values.

Record excerpt, results attached:
INSERT INTO measurements (compound, test_readout, result) VALUES
  ('[N-]=[N+]=C(C(=O)CN1CCCC1=O)S(=O)(=O)c1ccccc1', 'TGI', '> 100 µM'),
  ('CC1(C)CC(=O)c2c(N)n[nH]c2C1', 'TGI', '> 100 µM'),
  ('c1ccc2c(c1)nnn2C1CCCCO1 (stereo not drawn)', 'TGI', '> 100 µM'),
  ('Oc1c(C(Nc2ccccn2)c2ccccc2)ccc2cccnc12 (stereo not drawn)', 'TGI', '> 100 µM');

Would you mind listing TGI for each of the following compounds?
1. COC(=O)C1=C(C)NC(C)=C(C(=O)OC)C1c1cccc(/[N+]([O-])=C/c2ccccc2)c1
2. NC1(c2cc3ccccc3s2)CCCCCC1
3. N=C1C=CC(=C(c2ccc(N)cc2)c2ccc(N)cc2)C=C1
4. OC(CCN1CCN(CCOC(c2ccccc2)c2ccccc2)CC1)c1ccccc1 (stereo not drawn)

Response line:
1: 31.6 µM; 2: 30.4 µM; 3: 30.3 µM; 4: 36.8 µM

Would you mind listing TGI for each of the following compounds?
1. N#CCCN(CCCCN(CCC#N)C(=O)Nc1ccccc1)C(=O)Nc1ccccc1
2. CCCCCc1cc2cc3c(c(O)c2c(=O)[nH]1)C1(CCC3)C(=O)c2c(O)ccc(O)c2C1=O
3. CSc1nnnc2ccccc12
4. CC1(C)OCC2OC(n3cnc4c(N)nc(Cl)nc43)C(OS(C)(=O)=O)C2O1 (stereo not drawn)
5. N#Cc1ccc(-c2ccc(Cl)cc2)n(C2OC(CO)C(O)C(O)C2O)c1=S (stereo not drawn)

Response line:
1: > 100 µM; 2: > 100 µM; 3: > 100 µM; 4: > 100 µM; 5: > 100 µM

Would you mind listing TGI for each of the following compounds?
1. CCOc1ccc2c(c1)C(/C(C(Cl)=C(Cl)Cl)=[N+](/[O-])OC(=O)c1ccccc1)=N2
2. CCCN=C1NC(C)=CSC(Nc2ccccc2)=C1C#N
3. COC(=O)/C1=C/C=C\C[C@@]2(C)CC(c3ccoc3)OC(=O)[C@@H]2CC[C@H]1C (stereo partly drawn)
4. COCC(C#N)NC1CC(OC2CC(O)(C(=O)CO)Cc3c(O)c4c(c(O)c32)C(=O)c2c(OC)cccc2C4=O)OC(C)C1O (stereo not drawn)
5. CCC[N+](C)(C)CCCNC(=O)c1c(O)c2ccccc2[nH]c1=O

Response line:
1. > 100 µM
2. > 100 µM
3. > 25 µM
4. 0.349 µM
5. > 100 µM

====

So I've got a bunch of compounds here, and I need their log10 TGI values.
Tested on: SF-539 CNS
Experiment: NCI tumour cell line growth inhibition, 48 h
Answers are given as log10 of TGI in µM.

Record excerpt, results attached:
INSERT INTO measurements (compound, target_system, measured_number) VALUES
  ('CCOC(=O)N1CCC(N=C2CSc3nnc(-c4cc(C(F)(F)F)cc(C(F)(F)F)c4)n3N2)CC1', 'SF-539 CNS', 0.59),
  ('CC1(C)C2CC3C(C)(C2)C31c1cc(Cl)ccc1N (stereo unspecified)', 'SF-539 CNS', 1.51),
  ('Clc1cnc(Nc2ccc(OCCN3CCCC3)cc2)nc1NCc1ccco1', 'SF-539 CNS', 0.56),
  ('Cc1ccsc1C(NC(=O)c1ccccc1)c1cc(Cl)c2cccnc2c1O (stereo unspecified)', 'SF-539 CNS', 1.02),
  ('Cn1nc(C(F)(F)F)cc1-c1cc(Cl)c(OCc2ccc(Cl)cc2)c(-c2ccc(Cl)c(C(F)(F)F)c2)c1O', 'SF-539 CNS', 0.51);

Would you mind listing log10 TGI for each of the following compounds?
1. O=C(Nc1ccc(Cl)c(Cl)c1)c1ccc(NC2=C(Cl)C(=O)N(Cc3ccccc3)C2=O)cc1
2. CN1C(=O)N(C)C2C1NC(=S)N2/N=C/C=C/c1ccccc1[N+](=O)[O-] (stereo unspecified)
3. c1ccc2c(N=NSc3ncnc4nc[nH]c34)c3ccccc3nc2c1

Response line:
1: 1.48; 2: 0.93; 3: 0.55

Prompt line: Which log10 TGI reading was recorded for the compound `OCc1ccc2c(c1)CC1(Cc3ccccc3C1)C2` ?
Response line: 1.65
